This section presents molecules with their documented melting point values.

Please report melting point for the following molecule: CCN(CC)C(=O)NC1CC2c3cccc4[nH]c(C#Cc5ccc(C#N)cc5)c(c34)CC2N(C)C1 (stereo unspecified)
150 to 151 °C

Tell us which melting point value is on record for O=C(NCc1ccccn1)Nc1cc(NC(=O)c2ccccc2)ccn1
222 to 223 °C

Determine from records and report melting point for COC(=O)CN(C)C(=O)c1c(OC)ccc2c(Br)c(OC)ccc12
142 to 144 °C

Quote melting point reported for Cc1c(N2C(=O)CCC2=O)nc(C)n2c1c(CCCl)c1ccccc12 please.
232 to 234 °C

Please give the documented melting point of O=S(=O)(N[C@@H]1c2ccccc2CCC[C@H]1O)c1ccccc1 (relative stereo)
128 °C

Entry CCc1cccc2oc(C(=O)Nc3ccc(-c4ccc(S(=O)(=O)NC(C(=O)OC)C(C)C)cc4)cc3)c(C)c12 (stereo unspecified) needs its melting point filled in; supply it.
183 to 185 °C

More entries:
Give the value of melting point reported for the following: COc1ccc(-c2nc(SC)sc2-c2ccc(OC)cc2)cc1
102 to 104 °C

Output measured melting point for this item: O=c1cccccc1N1CCN(Cc2ccccc2)CC1
78 to 80 °C

Recall and state the measured melting point for CN1C(=O)N(CBr)C(=O)C1(C)C .
86 to 88 °C
